Values were extracted from ChEMBL document CHEMBL2069179.

- ASSAY OVERVIEW: Permeability across pig LLC-PK1 cells at 5 uM after 2 hrs by LC-MS analysis
- Type: ADME, cell-based, Sus scrofa
- RUN CONDITIONS: read-out: permeability
For each entry below, report its Papp at 2 h, 5 µM value.
Provide the measurement as a number trailed by its unit.

Examples with their reported Papp at 2 h, 5 µM follow.
CCN(CC(F)F)c1ncc(-c2cnnc3cc(OC)c(OC)cc23)cc1C ... 38 ×10⁻⁶ cm/s
COc1cc2nncc(-c3cnc(N[C@@H](C)Cc4ccccn4)c(C)c3)c2cc1OC ... 9.9 ×10⁻⁶ cm/s

Answer with reported Papp at 2 h, 5 µM of `COc1cc2nncc(-c3cnc(NC(C)C)c(C)c3)c2cc1OC`
24.7 ×10⁻⁶ cm/s
